Where these numbers come from: PubChem BioAssay (NCI)

System: RXF 393 renal
Test: NCI tumour cell line growth inhibition, 48 h
Measured Endpoint: TGI (µM)

compound=CCn1nc(-c2ccc(C(=O)OC)cc2)nc2c(=O)n(C)c(=O)nc1-2 measured_endpoint=TGI censor_symbol== experimental_value=3.26
compound=CCOC(=O)C(=Cc1ccccc1Cl)C(=O)OCC measured_endpoint=TGI censor_symbol== experimental_value=3.78
compound=Cn1c(-c2cccc(N)c2)[n+](C)c2ccccc21 measured_endpoint=TGI censor_symbol=> experimental_value=100
compound="COC1(OC)CC2CCCCC2=C(C)N1S(=O)(=O)c1ccccc1 (stereo unspecified)" measured_endpoint=TGI censor_symbol=> experimental_value=100
compound="CC1=NN(c2cccc(Cl)c2)C2(C1=Cc1ccccc1)C(Cl)C(=O)N2c1nc2ccccc2s1 (stereo unspecified)" measured_endpoint=TGI censor_symbol== experimental_value=28
compound="C[C@@H](c1ccccc1)C(CC#N)[C@H]1CCC[C@]1(O)C#Cc1ccc2c(c1)OCO2 (stereo partly specified)" measured_endpoint=TGI censor_symbol== experimental_value=28.6
compound=O=C(Cc1ccccc1CCO)NCCc1ccccc1 measured_endpoint=TGI censor_symbol=> experimental_value=100
compound=COc1cc([C@@H]2c3cc4c(c(O[C@@H]5O[C@H]6CO[C@@H](C)O[C@H]6[C@H](O)[C@@H]5O)c3C[C@H]3COC(=O)[C@@H]32)OCO4)cc(OC)c1O measured_endpoint=TGI censor_symbol=> experimental_value=100
compound="CC1(c2ccccc2)CCN(C2CC2)CO1 (stereo unspecified)" measured_endpoint=TGI censor_symbol== experimental_value=69.3
compound=COc1cc(O)cc2oc(-c3ccc(O)cc3)cc(=O)c12 measured_endpoint=TGI censor_symbol=> experimental_value=100
compound="C=CC[C@@]1(OC(C)=O)C(=O)C(=O)OC1C1COC(C)(C)O1 (stereo partly specified)" measured_endpoint=TGI censor_symbol== experimental_value=40.1

====

Test system: SF-295 CNS
Experiment: NCI tumour cell line growth inhibition, 48 h
Measured Endpoint: TGI

compound=CC1(C)S[C@H](c2ccccc2C(=O)O)N[C@@H]1CC(=O)O experimental_value="> 100 µM"
compound=O=C(Nc1sccc1S(=O)(=O)c1ccc(Cl)cc1)c1ccc(Cl)cc1 experimental_value="> 100 µM"
compound=CC1(C)CC(=O)c2c(nc3c4c([nH]c(-c5ccc([N+](=O)[O-])cc5)c24)CC(C)(C)C3)C1 experimental_value="> 100 µM"
compound="CCOC(=O)CCC(NC(=O)c1ccc(Sc2nc3cc(N)cc(N)c3nc2-c2ccccc2)cc1)C(=O)OCC (centres undefined)" experimental_value="> 36.8 µM"
compound=CC1=C(Cc2ccccc2)C(Cc2ccccc2)=C(C)S1=O experimental_value="> 100 µM"
compound="CC(=O)OC(C[C@H](C)[C@@H]1CC[C@]2(C)C3=CCC4C(C)(C)C(=O)CC[C@]4(C)C3CCC12C)C1OC1(C)C (some centres undefined)" experimental_value="> 100 µM"
compound="COC(=O)[C@]1(c2cc3ccccc3[nH]2)CC2CN(C(=O)OCc3ccccc3)C1C=C2OC (some centres undefined)" experimental_value="> 100 µM"
compound=COC(=O)/C=C/CC(=O)NS(C)(=O)=O experimental_value="> 10 µM"
compound=COc1ccccc1/C=C1\C(=O)N(C(=O)c2ccc(NC(C)=O)cc2)N=C1C experimental_value="> 100 µM"
